Test system: MCF7
method notes: HRG-induced Akt activation (dPAkt = log2 pAkt/Akt HRG-stimulated minus log2 pAkt/Akt basal) (log2 ratio difference); higher = stronger HRG-induced Akt(T308) phosphorylation
run parameters: miRNA mimic concentration 10 nM; time after transfection 72 h; heregulin 10 ng/ml; stimulation time 1 h
For each entry below, report its HRG-induced Akt activation (log2) value.
Returns: the value as a bare number; no unit string appended.

// HRG-induced Akt activation (log2) lookup, key: UGAGACCUCUGGGUUCUGAGCU
1.95

// HRG-induced Akt activation (log2) lookup, key: GUCCCUCUCCAAAUGUGUCUUG
0.988

// HRG-induced Akt activation (log2) lookup, key: AGGGGUGCUAUCUGUGAUUGA
1.68

// HRG-induced Akt activation (log2) lookup, key: AAAGUUCUGAGACACUCCGACU
1.35

// HRG-induced Akt activation (log2) lookup, key: ACAGCAGGCACAGACAGGCAGU
1.75

// HRG-induced Akt activation (log2) lookup, key: UGGUUGUAGUCCGUGCGAGAAUA
1.37

// HRG-induced Akt activation (log2) lookup, key: CAUCUUACCGGACAGUGCUGGA
1.84

// HRG-induced Akt activation (log2) lookup, key: CUAUACAAUCUACUGUCUUUC
1.11

// HRG-induced Akt activation (log2) lookup, key: AACCCGUAGAUCCGAACUUGUG
1.11

// HRG-induced Akt activation (log2) lookup, key: AGGGAUCGCGGGCGGGUGGCGGCCU
1.03

// HRG-induced Akt activation (log2) lookup, key: UGAGGUAGUAGGUUGUGUGGUU
1.08

// HRG-induced Akt activation (log2) lookup, key: AGCCUGAUUAAACACAUGCUCUGA
1.23

// HRG-induced Akt activation (log2) lookup, key: CAGUGCCUCGGCAGUGCAGCCC
1.45

// HRG-induced Akt activation (log2) lookup, key: ACUGGACUUAGGGUCAGAAGGC
2.01

###

System: MCF7
method notes: HRG-induced Akt activation (dPAkt = log2 pAkt/Akt HRG-stimulated minus log2 pAkt/Akt basal) (log2 ratio difference); higher = stronger HRG-induced Akt(T308) phosphorylation
run parameters: miRNA mimic concentration 10 nM; time after transfection 72 h; heregulin 10 ng/ml; stimulation time 1 h
For each entry below, report its HRG-induced Akt activation (log2) value.
Returns: the value as a bare number; no unit string appended.

// HRG-induced Akt activation (log2) lookup, key: ACUGUUGCUAAUAUGCAACUCU
0.931

// HRG-induced Akt activation (log2) lookup, key: CUUUCAGUCGGAUGUUUACAGC
1.62

// HRG-induced Akt activation (log2) lookup, key: ACUUGGGCACUGAAACAAUGUCC
1.5

// HRG-induced Akt activation (log2) lookup, key: GUGAACGGGCGCCAUCCCGAGG
1.92

// HRG-induced Akt activation (log2) lookup, key: UGGUUCUAGACUUGCCAACUA
1.94

// HRG-induced Akt activation (log2) lookup, key: UGCCUACUGAGCUGAUAUCAGU
1.62

// HRG-induced Akt activation (log2) lookup, key: AAAAGUAAUUGUGGUUUUUGCC
1.07

// HRG-induced Akt activation (log2) lookup, key: GCUGGGCAGGGCUUCUGAGCUCCUU
1.68

// HRG-induced Akt activation (log2) lookup, key: GAACGCCUGUUCUUGCCAGGUGG
1.4

// HRG-induced Akt activation (log2) lookup, key: ACUGGACUUGGAGUCAGAAGG
1.47

// HRG-induced Akt activation (log2) lookup, key: CUGGGAUCUCCGGGGUCUUGGUU
2

// HRG-induced Akt activation (log2) lookup, key: UUCACAAGGAGGUGUCAUUUAU
1.44

// HRG-induced Akt activation (log2) lookup, key: ACCCGUCCCGUUCGUCCCCGGA
1.51

// HRG-induced Akt activation (log2) lookup, key: AAAGCGCUUCCCUUCAGAGUG
1.53

// HRG-induced Akt activation (log2) lookup, key: CGUCAACACUUGCUGGUUUCCU
2.32

// HRG-induced Akt activation (log2) lookup, key: GGGGAGCUGUGGAAGCAGUA
1.73

// HRG-induced Akt activation (log2) lookup, key: AAGCAUUCUUUCAUUGGUUGG
1.4

// HRG-induced Akt activation (log2) lookup, key: AUAUUACCAUUAGCUCAUCUUU
1.42

// HRG-induced Akt activation (log2) lookup, key: CUCCGUUUGCCUGUUUCGCUG
2.07

// HRG-induced Akt activation (log2) lookup, key: UAUUCAUUUAUCCCCAGCCUACA
1.59

// HRG-induced Akt activation (log2) lookup, key: UACCCUGUAGAUCCGAAUUUGUG
1.47

// HRG-induced Akt activation (log2) lookup, key: UCGUACCGUGAGUAAUAAUGCG
1.27

// HRG-induced Akt activation (log2) lookup, key: UUAUUGCUUAAGAAUACGCGUAG
1.64

// HRG-induced Akt activation (log2) lookup, key: UUUGGCACUAGCACAUUUUUGCU
1.54

// HRG-induced Akt activation (log2) lookup, key: UUCAAGUAAUCCAGGAUAGGCU
1.19

// HRG-induced Akt activation (log2) lookup, key: UGUCUCUGCUGGGGUUUCU
1.89

// HRG-induced Akt activation (log2) lookup, key: AGCAGAAGCAGGGAGGUUCUCCCA
1.55

// HRG-induced Akt activation (log2) lookup, key: CAGUAACAAAGAUUCAUCCUUGU
2.1

// HRG-induced Akt activation (log2) lookup, key: CCAGUCCUGUGCCUGCCGCCU
1.88

// HRG-induced Akt activation (log2) lookup, key: CAAACCACACUGUGGUGUUAGA
1.09

// HRG-induced Akt activation (log2) lookup, key: CUGUACAGCCUCCUAGCUUUCC
2.26

// HRG-induced Akt activation (log2) lookup, key: GAAAGUGCUUCCUUUUAGAGGC
0.832

// HRG-induced Akt activation (log2) lookup, key: UCUGCCCCCUCCGCUGCUGCCA
1.55

// HRG-induced Akt activation (log2) lookup, key: UAGCAGCACAUCAUGGUUUACA
1.59

// HRG-induced Akt activation (log2) lookup, key: CAACUAGACUGUGAGCUUCUAG
2.04

// HRG-induced Akt activation (log2) lookup, key: AAGUGCCUCCUUUUAGAGUGUU
0.982

// HRG-induced Akt activation (log2) lookup, key: UGCGGGGCUAGGGCUAACAGCA
2.49

// HRG-induced Akt activation (log2) lookup, key: CAACCUGGAGGACUCCAUGCUG
0.949

// HRG-induced Akt activation (log2) lookup, key: UAUUGCACAUUACUAAGUUGCA
1.07

// HRG-induced Akt activation (log2) lookup, key: AGAAGGAAAUUGAAUUCAUUUA
2.39

// HRG-induced Akt activation (log2) lookup, key: GUUCAAAUCCAGAUCUAUAAC
1.08

// HRG-induced Akt activation (log2) lookup, key: UGAGUUGGCCAUCUGAGUGAG
1.61

// HRG-induced Akt activation (log2) lookup, key: UAGAUAAAAUAUUGGUACCUG
1.34

// HRG-induced Akt activation (log2) lookup, key: UGGUCUAGGAUUGUUGGAGGAG
1.61

// HRG-induced Akt activation (log2) lookup, key: UAGGUAGUUUCCUGUUGUUGGG
2.19

// HRG-induced Akt activation (log2) lookup, key: AAAGUGCUUCCUUUUAGAGGG
0.928

// HRG-induced Akt activation (log2) lookup, key: GUGUGUGGAAAUGCUUCUGC
2.16

// HRG-induced Akt activation (log2) lookup, key: ACCGUGGCUUUCGAUUGUUACU
1.58
